Source: patent US20230147840A1

Tested System: T1, Human CD3eg linker (human)
T1 construct: Single-chain soluble construct; also called recombinant human CD3
T1 chain: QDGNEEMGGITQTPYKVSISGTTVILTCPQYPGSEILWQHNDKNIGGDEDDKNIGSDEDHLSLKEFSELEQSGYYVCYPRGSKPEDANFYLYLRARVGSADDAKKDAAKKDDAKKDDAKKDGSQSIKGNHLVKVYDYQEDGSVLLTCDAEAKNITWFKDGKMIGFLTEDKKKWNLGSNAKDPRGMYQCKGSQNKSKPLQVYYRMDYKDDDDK
Assay Info: SPR Biacore 8K, Ab captured on anti-human Fc, CD3 as analyte, 25 C
Readout: koff (s⁻¹)
# number only, unit s⁻¹ dropped from output

Answered cases to consult:
# Binder, koff [s⁻¹]
records = [
    ("H1579L0581 (antibody, V domains shown, Dual-Ig with an Fc; also called DualAE25; dBBDu183H1579/dBBDu072L0581) VH: QVQLVESGGGLVQPGRSLRLSCAASGFKFSHVWFHWVRQAPGKGLEWVAQIKDKYNAYAAYYAPSVKGRFTISRDDSKNSIYLQMNSLKTEDTAVYYCHYVHYASASTLLPAFGVDAWGQGTTVTVSS VL: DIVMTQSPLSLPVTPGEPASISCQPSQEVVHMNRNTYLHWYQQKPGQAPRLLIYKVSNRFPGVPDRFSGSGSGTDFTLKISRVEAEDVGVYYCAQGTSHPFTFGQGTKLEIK", 0.034),
    ("H1595L0581 (antibody, V domains shown, Dual-Ig with an Fc; also called DualAE24; dBBDu183H1595/dBBDu072L0581) VH: QVQLVESGGGLVQPGRSLRLSCAASGFKFSNTWMHWVRQAPGKGLEWVAQIKDKYNAYAAYYAPSVKGRFTISRDDSKNSIYLQMNSLKTEDTAVYYCHYIHYASASTLLPAFGVDAWGQGTTVTVSS VL: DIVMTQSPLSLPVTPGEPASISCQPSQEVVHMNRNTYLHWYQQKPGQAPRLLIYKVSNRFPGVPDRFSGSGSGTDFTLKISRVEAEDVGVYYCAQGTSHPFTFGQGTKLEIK", 0.00658),
    ("H1572L0581 (antibody, V domains shown, Dual-Ig with an Fc; also called DualAE26; dBBDu183H1572/dBBDu072L0581) VH: QVQLVESGGGLVQPGRSLRLSCAASGFKFSNVWFHWVRQAPGKGLEWVAQIKDKYNAYAAYYAPSVKGRFTISRDDSKNSIYLQMNSLKTEDTAVYYCHYVHYASASTLLPAEGVDAWGQGTTVTVSS VL: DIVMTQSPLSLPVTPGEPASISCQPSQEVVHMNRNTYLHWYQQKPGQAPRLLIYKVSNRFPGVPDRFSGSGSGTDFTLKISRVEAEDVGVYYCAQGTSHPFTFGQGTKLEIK", 0.028),
]

Now take the following binder into account.
What does the data say about its koff? Entry: H0888L0581 (antibody, V domains shown, Dual-Ig with an Fc; also called DualAE02; dBBDu183H0888/dBBDu072L0581) VH: QVQLVESGGGLVQPGRSLRLSCAASGFKFSNVWMHWVRQAPGKGLEWVAQIKDKWNAYAAYYAPSVKGRFTISRDDSKNSIYLQMNSLKTEDTAVYYCHYIHYASASTLLPAFGIDAWGQGTTVTVSS VL: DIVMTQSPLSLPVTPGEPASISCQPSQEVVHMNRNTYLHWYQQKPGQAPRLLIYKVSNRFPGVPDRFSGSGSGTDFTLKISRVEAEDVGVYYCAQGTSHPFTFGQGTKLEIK
0.00192
